Tested on: Balb-c white mice
protocol: Toxicity (LD50 / deaths), arachis oil intraperitoneal
condition-description: table 1, doses in mgm/Kgm
quantity: LD50 (mg/kg)
I only need the number, in mg/kg, no unit after it.

LD50 of [NH2][Pt]([NH2])([OH])([OH])([Cl])[Cl] [trans di-hydroxo complexes of Pt(IV)] on Balb-c white mice?
135
